Listed here: items and their measured Concentration, required for complete inhibition of [Ca^2+I] release.
experimental_system: CXCR4 receptor (Homo sapiens)
Sequence (P61073 whole entry): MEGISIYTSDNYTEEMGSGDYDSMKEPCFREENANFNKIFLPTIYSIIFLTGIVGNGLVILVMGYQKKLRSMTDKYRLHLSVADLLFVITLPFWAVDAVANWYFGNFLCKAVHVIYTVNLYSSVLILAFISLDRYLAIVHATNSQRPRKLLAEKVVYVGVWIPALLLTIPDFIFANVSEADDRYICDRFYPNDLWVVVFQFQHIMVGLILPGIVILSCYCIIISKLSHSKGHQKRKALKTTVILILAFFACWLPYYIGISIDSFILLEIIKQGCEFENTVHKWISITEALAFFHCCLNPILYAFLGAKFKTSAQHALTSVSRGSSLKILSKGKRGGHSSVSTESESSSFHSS
protocol_details: Inhibition of SDF-1α-induced intracellular calcium release (Fura-2/AM) in HeLa and U87 cells
Type: cell-based
experimental_parameters: TM2-derived peptides; Table 3
Where no end group is shown, it is not given here. rhodamine = not defined here
Please reply with the bare figure in µM and do not write the unit itself.

Previously resolved entries follow.
>>> numeric_value("LLFVITLPFWAVDAVANDD (F-2-5 GPCR CXCR4) [Peptide F-2-5]")
10
>>> numeric_value("LLFVITLPFWAVDAVANWYFGN (F-2-1 GPCR CXCR4) [Peptide F-2-1]")
5
>>> numeric_value("AcLLFVITLPFWAVDAVANWYFGNDDK(Rhod)D (Ac-LLFVITLPFWAVDAVANWYFGNDDK(rhodamine)D; reading uncertain) [Rhod - AcF-2-2]")
8

Let me know recorded Concentration, required for complete inhibition of [Ca^2+I] release for LLFVITLPFWAVDAVANWYFGNKK (F-2-8 GPCR CXCR4) [Peptide F-2-8] , thanks. 20
